Let's look at some sequences and their measured solubility change mitosis (log2).
system: HeLa Kyoto; assay: solubility change mitosis vs G1/S (difference of NP-40 vs SDS log2 ratios) (log2 ratio difference); higher = more soluble in mitosis;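 further: synchronized HeLa Kyoto cells (double thymidine block for G1/S, nocodazole release for mitosis), protein amounts in NP-40 versus SDS lysates quantified by mass spectrometry, three biological replicates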
Number only, please.

Residues	Endpoint Name	Value
MNAEPERKFGVVVVGVGRAGSVRMRDLRNPHPSSAFLNLIGFVSRRELGSIDGVQQISLEDALSSQEVEVAYICSESSSHEDYIRQFLNAGKHVLVEYPMTLSLAAAQELWELAEQKGKVLHEEHVELLMEEFAFLKKEVVGKDLLKGSLLFTAGPLEEERFGFPAFSGISRLTWLVSLFGELSLVSATLEERKEDQYMKMTVCLETEKKSPLSWIEEKGPGLKRNRYLSFHFKSGSLENVPNVGVNKNIFLKDQNIFVQKLLGQFSEKELAAEKKRILHCLGLAEEIQKYCCSRK [BLVRA]	solubility change mitosis (log2)	-0.0957

[in] Please indicate recorded solubility change mitosis (log2) of MAAAANSGSSLPLFDCPTWAGKPPPGLHLDVVKGDKLIEKLIIDEKKYYLFGRNPDLCDFTIDHQSCSRVHAALVYHKHLKRVFLIDLNSTHGTFLGHIRLEPHKPQQIPIDSTVSFGASTRAYTLREKPQTLPSAVKGDEKMGGEDDELKGLLGLPEEETELDNLTEFNTAHNKRISTLTIEEGNLDIQRPKRKRKNSRVTFSEDDEIINPEDVDPSVGRFRNMVQTAVVPVKKKRVEGPGSLGLEESGSRRMQNFAFSGGLYGGLPPTHSEAGSQPHGIHGTALIGGLPMPYPNLAPDVDLTPVVPSAVNMNPAPNPAVYNPEAVNEPKKKKYAKEAWPGKKPTPSLLI [PPP1R8] measured with HeLa Kyoto.
[out] -0.0793
